Measured GI50 accompanies every entry in the list below.
Tested on: BT-549
Assay: NCI-60 SRB growth inhibition, one-dose and five-dose
Type: cell-based
Conditions: Homo sapiens, BT-549

[
  {
    "input_smiles": "O=C(/C=C/c1cccnc1)c1cccc(NCc2ccc(CO)cc2)c1",
    "GI50 [µM]": 6.12
  },
  {
    "input_smiles": "Cc1ccc(CNc2cccc(C(=O)/C=C/c3cccnc3)c2)cc1",
    "GI50 [µM]": 10.4
  },
  {
    "input_smiles": "CC(=O)Nc1ccc(/C=C/C(=O)c2cccc(NCc3ccc(C)cc3)c2)cc1",
    "GI50 [µM]": 5.26
  },
  {
    "input_smiles": "O=C(/C=C/c1cccnc1)c1cccc(NCc2csc3ccccc23)c1",
    "GI50 [µM]": 2.75
  }
]

====

Tested on: HL-60(TB)
Assay: cells
Assay type: cell-based
Details: Homo sapiens, HL-60
Measured GI50 accompanies every entry in the list below.

[
  {
    "compound": "CC(=O)Nc1ccc(CNc2cccc(C(=O)/C=C/c3cccnc3)c2)cc1 [Compound 5b]",
    "GI50 / nM": 2780
  },
  {
    "compound": "CC(=O)Nc1ccc(/C=C/C(=O)c2cccc(NCc3ccc(CO)cc3)c2)cc1 [Compound 5j]",
    "GI50 / nM": 11600
  },
  {
    "compound": "COc1ccc(CNc2cccc(C(=O)/C=C/c3ccc(NC(C)=O)cc3)c2)cc1OC [Compound 5h]",
    "GI50 / nM": 2540
  },
  {
    "compound": "O=C(/C=C/c1cccnc1)c1cccc(NCc2ccc(CO)cc2)c1 [Compound 5e]",
    "GI50 / nM": 4230
  },
  {
    "compound": "O=C(/C=C/c1cccnc1)c1cccc(NCc2csc3ccccc23)c1 [Compound 5d]",
    "GI50 / nM": 2730
  }
]
